# assay-comment: Cytotoxicity assay (CellTiter-Glo, 72 h), Jurkat
# Type: cell-based
# assay-context: human, Jurkat cells (T lymphoma), conc 12.5 uM, raw data (replicates)
Reported viability at 72 h, 12.5 uM values for the following molecules.
measured-metric: viability at 72 h, 12.5 uM (%)

- CO[C@H]1C[C@@H]2CC[C@@H](C)[C@@](O)(O2)C(=O)C(=O)N2CCCC[C@H]2C(=O)O[C@H]([C@H](C)C[C@@H]2CC[C@@H](O)[C@H](OC)C2)CC(=O)[C@H](C)/C=C(\C)[C@@H](O)CC[C@H](C)/C=C/C=C/C=C/1C [Compound 7]: 10.9
- CO[C@H]1C[C@@H]2CC[C@@H](C)[C@@](O)(O2)C(=O)C(=O)N2CCCC[C@H]2C(=O)O[C@H]([C@H](C)C[C@@H]2CC[C@@H](O)[C@H](OC)C2)CC(=O)[C@H](C)/C=C(\C)[C@@H](O)[C@@H](OC)C(=O)[C@H](C)C[C@H](C)/C=C/C=C/C=C/1C [Compound 1, rapamycin, reference compound]: 18.3
